# assayed_target: NMDA receptor (GRIN1/GRIN2A subunits) (Homo sapiens, UniProt Q05586+Q12879)
# Construct: expressed in transfected cells
# Sequence (Q12879 23-1464, other chains not shown): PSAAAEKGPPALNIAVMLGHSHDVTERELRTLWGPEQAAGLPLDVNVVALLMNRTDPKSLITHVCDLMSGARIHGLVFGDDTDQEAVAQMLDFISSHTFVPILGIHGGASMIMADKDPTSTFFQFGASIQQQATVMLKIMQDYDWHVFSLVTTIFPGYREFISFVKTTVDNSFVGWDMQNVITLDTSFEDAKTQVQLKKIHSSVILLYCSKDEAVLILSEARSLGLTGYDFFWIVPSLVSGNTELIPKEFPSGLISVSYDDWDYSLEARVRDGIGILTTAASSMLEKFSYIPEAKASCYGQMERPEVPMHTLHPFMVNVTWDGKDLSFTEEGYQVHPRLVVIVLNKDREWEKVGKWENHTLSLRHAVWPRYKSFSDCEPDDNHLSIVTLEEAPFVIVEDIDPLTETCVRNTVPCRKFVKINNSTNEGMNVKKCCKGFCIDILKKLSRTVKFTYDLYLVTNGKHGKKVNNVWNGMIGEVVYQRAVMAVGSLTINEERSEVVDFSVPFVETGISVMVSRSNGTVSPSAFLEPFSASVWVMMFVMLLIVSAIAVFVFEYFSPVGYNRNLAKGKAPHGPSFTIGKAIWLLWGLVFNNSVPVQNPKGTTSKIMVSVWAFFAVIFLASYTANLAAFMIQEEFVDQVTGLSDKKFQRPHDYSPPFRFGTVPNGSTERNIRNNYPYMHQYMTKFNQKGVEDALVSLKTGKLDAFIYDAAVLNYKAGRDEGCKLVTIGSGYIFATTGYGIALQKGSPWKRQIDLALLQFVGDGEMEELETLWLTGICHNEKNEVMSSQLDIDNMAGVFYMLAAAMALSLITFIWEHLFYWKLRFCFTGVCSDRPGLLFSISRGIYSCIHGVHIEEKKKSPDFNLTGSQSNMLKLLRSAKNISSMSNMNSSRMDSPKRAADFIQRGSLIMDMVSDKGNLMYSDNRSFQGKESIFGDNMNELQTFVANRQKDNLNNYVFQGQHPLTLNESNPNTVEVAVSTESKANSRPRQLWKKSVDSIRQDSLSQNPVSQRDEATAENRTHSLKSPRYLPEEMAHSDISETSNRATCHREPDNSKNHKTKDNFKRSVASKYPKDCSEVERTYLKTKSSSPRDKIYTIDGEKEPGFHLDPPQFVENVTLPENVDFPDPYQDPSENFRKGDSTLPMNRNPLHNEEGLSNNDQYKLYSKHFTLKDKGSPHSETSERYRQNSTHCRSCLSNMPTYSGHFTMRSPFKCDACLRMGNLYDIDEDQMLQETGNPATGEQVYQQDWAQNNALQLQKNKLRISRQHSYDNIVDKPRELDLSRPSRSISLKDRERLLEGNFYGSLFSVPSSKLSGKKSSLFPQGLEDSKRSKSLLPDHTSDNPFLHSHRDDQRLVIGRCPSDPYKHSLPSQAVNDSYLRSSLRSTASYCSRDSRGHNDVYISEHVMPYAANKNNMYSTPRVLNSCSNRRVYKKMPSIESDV
# protocol: NMDA potentiation, whole-cell patch-clamp in HEK cells
# Assay type: cell-based
# condition_parameters: compound 0.1 uM, currents evoked by 30 μM NMDA and 5.0 μM Glycine, holding potential −80 mV
Labelling field: enter true if recorded NMDA 1a2A (%) Potentiation 0.1 uM is less than 10%. Enter false if it equals or exceeds that cut-off.

Identify whether the molecule COC[C@@]1(O)CC[C@@]2(C)[C@@H](CC[C@@H]3[C@@H]2CC[C@]2(C)[C@@H]([C@H](C)CCC(C)(C)O)CC[C@@H]32)C1 records NMDA 1a2A (%) Potentiation 0.1 uM below 10%. true

# check: NMDA 1a2A (%) Potentiation 0.1 uM < 10% for C[C@H](CCC(C)(C)O)[C@H]1CC[C@H]2[C@@H]3CC[C@H]4C[C@@H](O)CC[C@@H]4[C@H]3CC[C@]12C false

is_below(NMDA 1a2A (%) Potentiation 0.1 uM, 10%) for CC(CCC(C)(C)O)[C@H]1CC[C@H]2[C@@H]3CC=C4C[C@@H](O)CC[C@]4(C)[C@H]3CC[C@]12C (stereo partly drawn) ? false

Given CC(C)(O)CCO[C@H]1CCC2C3CC[C@H]4C[C@@](C)(O)CC[C@]4(C)C3CC[C@@]21C (stereo partly drawn) , is recorded NMDA 1a2A (%) Potentiation 0.1 uM strictly lower than 10%? true

I wonder whether C[C@H](CCC(C)(C)O)[C@H]1CC[C@H]2[C@@H]3CC[C@H]4C[C@](O)(C(F)(F)F)CC[C@]4(C)[C@H]3CC[C@]12C has NMDA 1a2A (%) Potentiation 0.1 uM below 10%. Can you tell? false

Strictly below 10%: is that where NMDA 1a2A (%) Potentiation 0.1 uM of C[C@H](CCCO)[C@H]1CC[C@H]2[C@@H]3CC=C4C[C@@H](O)CC[C@]4(C)[C@H]3CC[C@]12C sits? false

Please determine if C[C@H](CCC(C)(C)O)[C@H]1CC[C@H]2[C@@H]3CC=C4C[C@@](C)(O)CC[C@]4(C)[C@H]3CC[C@]12C is below 10% in terms of NMDA 1a2A (%) Potentiation 0.1 uM. false

Quick check: does C[C@H](CCC(C)(C)O)[C@H]1CC[C@H]2[C@@H]3CC[C@H]4C[C@](C)(O)CC[C@@H]4[C@H]3CC[C@]12C have NMDA 1a2A (%) Potentiation 0.1 uM under 10%? false

# TODO verify NMDA 1a2A (%) Potentiation 0.1 uM < 10% strictly for this molecule: CC(C)(O)CCC[C@H]1CCC2C3CC[C@H]4C[C@@](C)(O)CC[C@]4(C)C3CC[C@@]21C (stereo partly drawn) false

Dear reviewer, please state whether COC[C@]1(O)CC[C@@]2(C)[C@@H](CC[C@@H]3[C@@H]2CC[C@]2(C)[C@@H]([C@H](C)CCC(C)(C)O)CC[C@@H]32)C1 has NMDA 1a2A (%) Potentiation 0.1 uM strictly beneath 10%. false

Item C[C@@H]([C@H]1CC[C@H]2[C@@H]3CC=C4C[C@@H](O)CC[C@]4(C)[C@H]3CC[C@]12C)C(C)(C)O : NMDA 1a2A (%) Potentiation 0.1 uM beneath 10%, strictly? true

Take the molecule CC[C@@]1(O)CC[C@@]2(C)C(=CC[C@H]3[C@@H]4CC[C@H]([C@H](C)CCC(C)(C)O)[C@@]4(C)CC[C@@H]32)C1 and say whether its NMDA 1a2A (%) Potentiation 0.1 uM is less than 10%. false

Does this molecule meet the criterion NMDA 1a2A (%) Potentiation 0.1 uM < 10%? C[C@H](CCC(C)(C)O)[C@H]1CC[C@H]2[C@@H]3CC=C4C[C@](C)(O)CC[C@]4(C)[C@H]3CC[C@]12C false

Given the entry C[C@H](CCC(C)(C)O)[C@H]1CC[C@H]2[C@@H]3CC[C@H]4C[C@](O)(C(F)(F)F)CC[C@@H]4[C@H]3CC[C@]12C , would its reported NMDA 1a2A (%) Potentiation 0.1 uM be below 10%? false

NMDA 1a2A (%) Potentiation 0.1 uM strictly < 10% for this molecule? C[C@H](CCC(C)(C)N)[C@H]1CC[C@H]2[C@@H]3CC=C4C[C@@H](O)CC[C@]4(C)[C@H]3CC[C@]12C true
